Here's a batch of compounds along with measured pKi for human mu opioid receptor (Homo sapiens).
Give bare numbers, as −log10 of the molar value.

Example entries begin here.
In [3]: df
Out[3]:
                                   compound  measured_parameter  test_value
0  C=CCN1C[C@H](C)N([C@@H](c2cccc(O)c2)c2cccc(C(=O)N3CCN(CCCCC(=O)O)CC3)c2)C[C@H]1C                 pKi        7.24
1  CCOC(=O)CCCCCCN1CCN(C(=O)c2cccc([C@H](c3cccc(O)c3)N3C[C@@H](C)N(Cc4cccc(F)c4)C[C@@H]3C)c2)CC1                 pKi        8.23
2  C=CCN1C[C@H](C)N(C(c2cccc(O)c2)c2cccc(C(=O)N3CCCN(CCCCCCC(=O)O)CC3)c2)C[C@H]1C (stereo partly drawn)                 pKi        8.08
3  C[C@@H]1CN(C(c2cccc(O)c2)c2cccc(C(=O)N3CCCN(CCCCC(=O)O)CC3)c2)[C@@H](C)CN1Cc1ccccc1 (stereo partly drawn)                 pKi        7.63

Answer for every listed entry: what is its pKi? The entries follow.
1. CCOC(=O)CCCCCN1CCCN(C(=O)c2cccc(C(c3cccc(O)c3)N3C[C@@H](C)N(CC4CC4)C[C@@H]3C)c2)CC1 (stereo partly drawn)
2. C[C@@H]1CN([C@@H](c2cccc(O)c2)c2cccc(C(=O)N3CCN(CCCCC(=O)O)CC3)c2)[C@@H](C)CN1Cc1cccc(F)c1

[8.03, 6.68]
